Values compiled from patent US20200308267A1.

Consider the following binders and their measured kd(fast) readings.
biological target: T1, recombinant human VEGF165 (human, UniProt P15692-4 27-191, biotinylated (Sulfo-NHS-LC-Biotin) in the competition assays); assay: Biacore, periplasmic extract, VEGF165 chip, two phase decay fit; set-up: unit not given here
T1 construct: also called hVEGF165; rhVEGF165
T1 sequence (P15692 other isoform, or with tags, fused parts or gaps limits assumed): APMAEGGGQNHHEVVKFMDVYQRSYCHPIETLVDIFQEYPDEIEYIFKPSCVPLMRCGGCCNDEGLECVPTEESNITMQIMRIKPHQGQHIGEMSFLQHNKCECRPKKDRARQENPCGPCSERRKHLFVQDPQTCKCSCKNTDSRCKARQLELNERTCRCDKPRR
The response must contain the number and no unit.

The cases that follow already have their kd(fast) on record.
VEGFBII22E04 (VHH, not shown: small tags and cut ends) VHH: EVQLVESGGGLVQPGDSLKLSCVASGRTSSSYSMGWFRQAQGKEREFVVAISSGGSIYDSVSLQGRFTISRDNTKNTVYLQTPSLKPEDTAVYYCAASRAYASSRLRLADTYDYWGQGTQVTVSS :: 0.018
VEGFBII40G07 (VHH, not shown: small tags and cut ends) VHH: EVQLVESGGGLVQPGDSLKLSCAFSGRTFSSYSMGWFRQAQGKEREFVVAISSSGGYIYDSVSLEGRFTISRDNTKNAVYLQTPSLKPEDTADYYCAASRAYGSSRLRLADTYDYWGQGTQVTVSS :: 0.018
VEGFBII40H10 (VHH, not shown: small tags and cut ends) VHH: EVQLMESGGGLVQPGDSLKLSCAFSGRTFSSYSMGWFRQAQGKEREFVVAISSSGGYIYDSVSLEGRFTISRDNTKNTVYLQTPSLKPEDTADYYCAASRAYGSSRLRLADTYDYWGQGTQVTVSS :: 0.014

**Query** Recorded kd(fast) for VEGFBII39G04 (VHH, not shown: small tags and cut ends) VHH: EVPLVESGGGLVQAGDSLRLSCAASGRTFSSYSMGWFRQAQGKEREFVVAISSSGNYKYDSASLEGRFTISRDNTKNTVYLQINSLKPEDTAVYYCAASRAYGSSRLRLGDTYDYWGQGTQVTVSS , please?
**Result** 0.014

**Query** Look at this binder and give its reported kd(fast). VEGFBII56E11 (VHH, not shown: small tags and cut ends) VHH: EVQLVESGGGLVQPGDSLKLSCAFSGRTFSSYSMGWFRQAQGKEREFVVAISSSGGYIYDSVSLEGRFTISRDNTKNTVYLQTPSLKPEDAADYYCAASRAYGSSRLRLADTYDYWGQGTQVTVSS
**Result** 0.033

**Query** Item under review: VEGFBII30E07 (VHH, not shown: small tags and cut ends) VHH: EVQLVESGGGLVQAGDSLRLSCAASGRTFSSYSMGWFRQAQGKEREFVVAISSSGNYKYDSVSLEGRFTISRDNTKNTVYLQINSLKPEDTAVYYCAASRAYGSSRLRLGDTYDYWGQGTRVTVSS . Reported kd(fast)?
**Result** 0.017

**Query** Look at this binder and give its reported kd(fast). VEGFBII23A09 (VHH, not shown: small tags and cut ends) VHH: EVQLVESGGGLVQPGDSLKLSCAFSGRTFGSYSMGWFRQAQGKEREFVVAISSSGGYIYDSVSLEGRFTISRDNSKNTVYLQTPSLKPEDTAVYYCAASRAYGSSRLRLPDTYDYWGQGTQVTVSS
**Result** 0.027

**Query** For the binder shown here, VEGFBII22B06 (VHH, not shown: small tags and cut ends) VHH: EVQLVESGGGLVQPGDSLKLSCAASGRTFSSYSMGWFRQAQGKEREFVVAISSSGGYIYDSVSLEGRFTISRDNTKNTVYLQTPSLKPEDTAVYYCAASRAYGSSRLRLADTYDYWGQGTQVTVSS , give the reported kd(fast).
**Result** 0.038
